Target: Human PGR3/ZADH2 (Homo sapiens)
Construct: GST; made in house; host or cells: E. coli
Sequence (Q8N4Q0 1-377): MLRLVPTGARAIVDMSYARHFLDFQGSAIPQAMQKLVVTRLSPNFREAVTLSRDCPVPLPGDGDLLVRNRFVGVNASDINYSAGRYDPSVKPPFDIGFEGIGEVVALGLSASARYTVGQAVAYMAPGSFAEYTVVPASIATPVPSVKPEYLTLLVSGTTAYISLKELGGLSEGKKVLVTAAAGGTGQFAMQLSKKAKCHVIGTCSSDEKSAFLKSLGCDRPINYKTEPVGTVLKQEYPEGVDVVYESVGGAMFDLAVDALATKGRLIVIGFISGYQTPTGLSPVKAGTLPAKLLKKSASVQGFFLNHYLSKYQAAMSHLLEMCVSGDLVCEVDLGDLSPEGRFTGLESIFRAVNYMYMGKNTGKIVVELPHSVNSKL
Assay: PGR3/ZADH2 enzyme inhibition assay (reduction of 15-keto-PGE2, NADPH consumption)
Format: biochemical
Conditions: 50 μM compound, No Inhibitor = 100
Measurement label: activity at 50 µM (%)
Give the quantity in %, number only.

These recorded examples may help you get a feel for the data.
COc1cc(/C=C/C(=O)c2cc(Br)ccc2O)cc(OC)c1OC [Compound 13] : 51.1
O=c1c(O)c(-c2ccccc2)oc2cc(O)cc(O)c12 [Compound 8] : 25.6
O=c1c(O)c(-c2ccc(O)c(O)c2)oc2ccccc12 [Compound 27] : 91.1

Proceeding to the next compound to report its activity at 50 µM.
activity at 50 µM lookup needed for COc1cc(/C=C/C(=O)c2ccccc2O)cc(OC)c1OC [Compound 12] , thanks.
27.5
